Cited source for all entries: ChEMBL document CHEMBL1144209

- TGT: CYP17 (steroid 17-alpha-hydroxylase/17,20 lyase) (Homo sapiens, UniProt P05093)
- Sequence (P05093 whole entry): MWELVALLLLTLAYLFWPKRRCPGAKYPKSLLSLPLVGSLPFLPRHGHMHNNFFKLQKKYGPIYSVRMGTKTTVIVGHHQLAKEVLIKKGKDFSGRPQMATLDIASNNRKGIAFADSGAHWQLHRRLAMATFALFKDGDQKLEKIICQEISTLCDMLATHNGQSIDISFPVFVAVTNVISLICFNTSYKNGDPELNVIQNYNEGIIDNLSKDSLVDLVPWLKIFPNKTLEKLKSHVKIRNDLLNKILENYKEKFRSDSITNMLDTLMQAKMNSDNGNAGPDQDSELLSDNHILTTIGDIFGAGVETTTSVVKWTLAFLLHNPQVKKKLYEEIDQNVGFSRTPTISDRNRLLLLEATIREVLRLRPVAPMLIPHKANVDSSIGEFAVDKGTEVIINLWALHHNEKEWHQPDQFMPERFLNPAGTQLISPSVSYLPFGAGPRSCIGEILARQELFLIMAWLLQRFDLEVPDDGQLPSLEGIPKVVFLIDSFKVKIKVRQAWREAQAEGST
- ASSAY DETAILS: Inhibition of human CYP17 expressed in Escherichia coli coexpressing NADPH reductase at 2 uM
inhibition at 2 µM values, listed per item
Provide the reading as a plain figure in %.

# STRUCTURE NOTATION, ENDPOINT RESULT
records = [
    ("CC(C)(C)c1ccc(CN(CC/C=C/c2ccccc2)n2cncn2)cc1", 12.4),
]

Input line: Query: inhibition at 2 µM; subject: `CC(C)(C)c1ccc(CN(Cc2cccc3ccccc23)n2cnnc2)cc1`
Output line: 22.4

Input line: Looking for the measured inhibition at 2 µM of `CC(C)(C)c1ccc(CN(Cc2ccc(-c3ccccc3)cc2)n2cnnc2)cc1` , can you help?
Output line: 15.9

Input line: Any idea what its inhibition at 2 µM is? The compound is `Cc1ccc(CN(Cc2ccc(-c3ccccc3)cc2)n2ccnc2)cc1`
Output line: 29.1

Input line: Entry under review: `C(=C\c1ccccc1)/CCN(Cc1ccc(-c2ccccc2)cc1)n1cncn1` . Reported inhibition at 2 µM?
Output line: 12.4

Input line: Record request: inhibition at 2 µM value, item `Clc1ccc(CN(Cc2ccc(-c3ccccc3)cc2)n2ccnc2)s1`
Output line: 23.6

Input line: So what's the measured inhibition at 2 µM for this one? `Clc1ccc(CN(Cc2cccc3ccccc23)n2ccnc2)c(Cl)c1`
Output line: 11.3

====

- TGT: Aromatase (Homo sapiens, UniProt P11511)
Parameter IC50: see the listing below.

Known results for molecules:
# MOLECULE, ENDPOINT RESULT
measured = [
    ("Clc1ccc(CN(Cc2ccc(-c3ccccc3)cc2)n2ccnc2)cc1", "1180 nM"),
    ("Clc1ccccc1CC(Cc1ccc(-c2ccccc2)cc1)n1ccnc1 (configuration not stated)", "1090 nM"),
    ("Fc1ccccc1CC(Cc1ccc(-c2ccccc2)cc1)n1ccnc1 (configuration not stated)", "1370 nM"),
]

Input line: Returns the measured IC50 for the input molecule. Input: Cc1ccccc1CC(Cc1ccc(-c2ccccc2)cc1)n1ccnc1 (configuration not stated)
Output line: 1040 nM

====

Target sequence: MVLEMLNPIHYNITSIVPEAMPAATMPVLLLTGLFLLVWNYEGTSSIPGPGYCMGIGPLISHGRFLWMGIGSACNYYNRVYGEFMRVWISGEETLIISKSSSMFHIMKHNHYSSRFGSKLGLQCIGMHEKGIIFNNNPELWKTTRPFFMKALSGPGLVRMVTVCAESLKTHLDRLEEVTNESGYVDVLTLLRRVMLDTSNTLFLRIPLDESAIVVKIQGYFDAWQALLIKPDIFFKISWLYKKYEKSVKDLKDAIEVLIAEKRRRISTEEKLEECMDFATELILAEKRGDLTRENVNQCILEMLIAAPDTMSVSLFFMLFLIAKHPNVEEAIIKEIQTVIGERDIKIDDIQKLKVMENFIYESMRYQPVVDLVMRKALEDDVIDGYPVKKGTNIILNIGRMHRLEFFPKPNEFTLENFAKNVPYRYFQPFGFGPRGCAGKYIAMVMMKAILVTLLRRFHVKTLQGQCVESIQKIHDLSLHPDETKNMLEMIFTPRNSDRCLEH
ENDPOINT NAME: IC50 (nM)
Write it as a number; the unit nM goes unstated.

The examples below pair each entry with its known result.
# COMPOUND, IC50 (nM)
measured = [
    ("COc1ccccc1CN(Cc1ccc(-c2ccccc2)cc1)n1ccnc1", 1510),
    ("CC(C)(C)c1ccc(CC(Cc2ccc(-c3ccccc3)cc2)n2ccnc2)cc1 (stereo not drawn)", 1000),
]

Let us examine a further case.
Input line: Entry Clc1ccc(CC(Cc2ccc(-c3ccccc3)cc2)n2ccnc2)s1 (stereo not drawn) has what IC50?
Output line: 1070
